molecular target: Vps34 (Homo sapiens, UniProt Q8NEB9)
Sequence (Q8NEB9 whole entry): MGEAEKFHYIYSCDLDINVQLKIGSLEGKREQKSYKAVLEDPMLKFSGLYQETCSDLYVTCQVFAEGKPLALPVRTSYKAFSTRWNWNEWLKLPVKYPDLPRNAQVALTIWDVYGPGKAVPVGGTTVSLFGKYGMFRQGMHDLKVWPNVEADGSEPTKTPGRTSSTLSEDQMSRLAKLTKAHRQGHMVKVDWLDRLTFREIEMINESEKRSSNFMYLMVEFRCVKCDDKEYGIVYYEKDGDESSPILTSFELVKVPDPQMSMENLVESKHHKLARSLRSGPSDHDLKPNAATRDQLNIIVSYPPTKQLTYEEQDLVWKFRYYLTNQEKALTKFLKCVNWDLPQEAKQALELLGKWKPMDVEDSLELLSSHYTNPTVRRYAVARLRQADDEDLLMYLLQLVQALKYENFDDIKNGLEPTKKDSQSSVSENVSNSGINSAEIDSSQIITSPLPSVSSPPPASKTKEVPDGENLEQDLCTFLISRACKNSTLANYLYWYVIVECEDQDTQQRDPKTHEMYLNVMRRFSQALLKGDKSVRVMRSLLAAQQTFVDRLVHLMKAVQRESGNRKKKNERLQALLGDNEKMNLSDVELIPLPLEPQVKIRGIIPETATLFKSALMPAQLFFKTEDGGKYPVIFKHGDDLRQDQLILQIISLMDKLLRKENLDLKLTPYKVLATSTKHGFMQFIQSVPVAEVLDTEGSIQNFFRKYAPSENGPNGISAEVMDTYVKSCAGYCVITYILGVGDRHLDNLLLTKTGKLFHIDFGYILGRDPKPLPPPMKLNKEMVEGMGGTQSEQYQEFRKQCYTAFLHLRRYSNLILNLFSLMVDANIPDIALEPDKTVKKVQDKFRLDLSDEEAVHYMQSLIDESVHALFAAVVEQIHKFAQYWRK
pIC50: −log10 of the molar value.
test readout: pIC50

>>> print(df.to_string())
                                   compound  reported
0  Cc1nc(NC(=O)[C@@H](N)C(C)C)sc1-c1cnc(Cl)c(NS(=O)(=O)c2ccccc2)c1 [PI3KD-IN-015]      6.55

---

target: UniProtKB P42336
Sequence (P42336 whole entry): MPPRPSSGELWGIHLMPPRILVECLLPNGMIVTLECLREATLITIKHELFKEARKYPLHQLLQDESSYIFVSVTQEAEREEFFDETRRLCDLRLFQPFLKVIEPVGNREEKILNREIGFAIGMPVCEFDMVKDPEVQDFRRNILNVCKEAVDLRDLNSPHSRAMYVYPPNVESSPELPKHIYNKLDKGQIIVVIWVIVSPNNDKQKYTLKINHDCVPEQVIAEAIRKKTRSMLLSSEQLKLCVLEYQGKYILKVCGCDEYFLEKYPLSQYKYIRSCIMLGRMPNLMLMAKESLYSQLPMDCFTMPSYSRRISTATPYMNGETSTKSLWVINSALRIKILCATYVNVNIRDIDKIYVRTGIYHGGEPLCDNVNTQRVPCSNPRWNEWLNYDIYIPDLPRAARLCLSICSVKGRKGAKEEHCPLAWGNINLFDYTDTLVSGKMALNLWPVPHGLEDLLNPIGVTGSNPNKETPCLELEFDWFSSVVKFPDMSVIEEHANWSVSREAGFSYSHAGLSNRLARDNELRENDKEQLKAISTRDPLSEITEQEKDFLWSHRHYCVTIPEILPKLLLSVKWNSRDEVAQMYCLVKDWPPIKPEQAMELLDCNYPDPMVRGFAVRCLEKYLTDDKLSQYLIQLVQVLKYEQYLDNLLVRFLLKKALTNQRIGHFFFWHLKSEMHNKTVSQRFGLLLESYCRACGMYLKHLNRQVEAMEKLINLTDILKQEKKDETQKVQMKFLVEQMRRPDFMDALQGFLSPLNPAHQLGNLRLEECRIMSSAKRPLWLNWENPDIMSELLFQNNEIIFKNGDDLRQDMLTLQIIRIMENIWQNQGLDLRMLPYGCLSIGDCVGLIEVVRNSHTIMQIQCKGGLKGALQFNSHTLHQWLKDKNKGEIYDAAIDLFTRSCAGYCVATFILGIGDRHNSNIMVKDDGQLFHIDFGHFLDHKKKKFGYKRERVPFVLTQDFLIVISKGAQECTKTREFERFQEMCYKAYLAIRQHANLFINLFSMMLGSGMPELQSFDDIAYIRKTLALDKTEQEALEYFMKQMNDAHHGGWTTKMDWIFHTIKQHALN
Sequence (P27986 whole entry partner): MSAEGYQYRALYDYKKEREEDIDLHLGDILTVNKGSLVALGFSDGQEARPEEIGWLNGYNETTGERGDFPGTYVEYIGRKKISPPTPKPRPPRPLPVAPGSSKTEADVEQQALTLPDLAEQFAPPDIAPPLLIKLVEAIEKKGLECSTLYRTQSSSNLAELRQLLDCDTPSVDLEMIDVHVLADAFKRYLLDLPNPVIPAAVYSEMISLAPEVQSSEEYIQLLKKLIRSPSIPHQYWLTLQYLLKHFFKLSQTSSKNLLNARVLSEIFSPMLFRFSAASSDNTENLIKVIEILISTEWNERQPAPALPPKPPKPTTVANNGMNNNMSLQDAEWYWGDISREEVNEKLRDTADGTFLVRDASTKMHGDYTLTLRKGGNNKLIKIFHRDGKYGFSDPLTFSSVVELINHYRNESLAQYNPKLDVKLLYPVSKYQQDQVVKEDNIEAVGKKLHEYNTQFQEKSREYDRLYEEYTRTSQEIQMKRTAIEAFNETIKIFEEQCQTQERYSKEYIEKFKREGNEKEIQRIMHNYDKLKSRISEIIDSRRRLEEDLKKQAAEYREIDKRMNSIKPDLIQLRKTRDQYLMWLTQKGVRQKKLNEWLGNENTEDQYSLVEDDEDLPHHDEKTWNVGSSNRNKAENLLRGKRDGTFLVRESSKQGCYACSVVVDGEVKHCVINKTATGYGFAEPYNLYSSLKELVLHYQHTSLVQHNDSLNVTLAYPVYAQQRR
pIC50: −log10 of the molar value.
test readout: pIC50

>>> df
                           molecular_string  reported
0  Cc1nc(NC(=O)[C@@H](N)C(C)C)sc1-c1cnc(Cl)c(NS(=O)(=O)c2ccccc2)c1      7.22

Values compiled from paper PMC5078040.
